Target: T1, RSV F ectodomain stabilized in the postfusion conformation (F ΔFP), subtype B (Respiratory syncytial virus subtype B, UniProt P13843 26-109; P13843 147-524)
T1 construct: extracellular domain; trimer; also called Postfusion subtype B; postF subtype B
Assay: BLI, IgG on AHQ sensor, 100 nM antigen
pKd: −log10 of the molar value.
Classify by measured pKd: true if it is equal to or exceeds 9, false if it is smaller.

Worked cases, answers included:
{"binder": "ADI-14460 (antibody, V domains shown, full-length IgG (yeast-expressed); also called Antibody Number 23; Ab# 23) VH: QVQLQQWGAGLLKPSETLSLSCTVSGGVFGNYFWSWVRQAPGKGLEWIGEINQIGTTNYSPSASLKSRVTISVDPSRNQFSLSLRSVTAADTARYYCTRSETSDYFDSSGYAFHIWGEGTMVTVSS VL: LPVLTQPASVSGSPGQSITISCSGISSDGGRYNYVSWYQQHPGKAPKLLIYDDSNWPLGVSHRFSGSKSGNTASLTISGLRAEDEADYYCGSYTDTNRLFGGGTQLTVL", "discreteLabel": "false"}
{"binder": "ADI-14447 (antibody, V domains shown, full-length IgG (yeast-expressed); also called Antibody Number 10; Ab# 10) VH: QVQLVQSGAEMKKPGSSVTVSCKASGVPFTSYTYSWVRQAPGQGLEWMGRVLPVIGSAKYPQKFQGTVTITADKSTSTIYLQLSSLRPEDTAIYFCAGSLLAGYDREFDSWGQGTLVTVSS VL: DIQMTQSPSSLSASVGDRITITCRASQGISNWLAWYQQKPGKAPKSLIYEASTLQSGVSSRFSGSGSGTHFTLTIASLQPEDFATYYCQQYYIYPLTFGGGTKLEIK", "discreteLabel": "true"}
{"binder": "ADI-14506 (antibody, V domains shown, full-length IgG (yeast-expressed); also called Antibody Number 67; Ab# 67) VH: QVQLVQSGAEVKKPGSSVKVSCKVAGGSFSNYAIAWLRQAPGQGLEWMGGIIPAFNRAMYARKFQDRVTITAYASTTTAYLDITGLRSEDTALYYCARPAGDFGDLKWVRSPFDYWGQGTLITVSS VL: DIVMTQTPGTLSVSPGERATLSCRASQDVGINLAWYQQKPGQAPRLLIYGASTRATDVPAKFSGSGSGTDFTLTISSLQSEDFGVYYCQEYNDWPPQLSFGPGTKVDIK", "discreteLabel": "false"}

Attention now shifts to the item below.
Prompt: Say whether ADI-14446 (antibody, V domains shown, full-length IgG (yeast-expressed); also called Antibody Number 9; Ab# 9) VH: QVQLVQSGAEVKKPGSSVKVSCEASGDTFTSYAVIWVRQTPGQGLEFMGSIIPIFQTINYAPKFQGRVTLSADGSTSTVFMELRNLRSEDTAIYFCATKRYCTSPSCHGLWYFNLWGRGTMVTVSS VL: ETTLTQSPISLSVTPGEPASISCRSSKSLLDSDDGNTYLDWYLQKPGQSPQILIYMLSYRASGVPDRFSGSGSGTDFTLKISRVEAEDVGVYYCMQRIEYPYTFGQGTKVEIK shows pKd of 9 or more.
Response: true
